Give pKi for every item shown.
Target: oxytocin receptor (CHO-OTR/NFAT-β-Lactamase cells) (Homo sapiens, UniProt P30559)
Sequence (P30559 1-389): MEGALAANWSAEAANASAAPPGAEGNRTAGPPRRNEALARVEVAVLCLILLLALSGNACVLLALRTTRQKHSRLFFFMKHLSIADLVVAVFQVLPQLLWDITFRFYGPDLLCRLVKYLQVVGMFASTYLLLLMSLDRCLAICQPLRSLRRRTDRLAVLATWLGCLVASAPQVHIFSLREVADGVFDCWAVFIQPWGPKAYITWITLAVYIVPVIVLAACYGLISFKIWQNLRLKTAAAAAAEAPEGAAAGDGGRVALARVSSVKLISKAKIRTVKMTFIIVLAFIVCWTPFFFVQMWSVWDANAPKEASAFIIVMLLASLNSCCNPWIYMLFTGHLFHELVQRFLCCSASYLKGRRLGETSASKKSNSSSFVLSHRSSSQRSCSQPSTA
Experiment: Oxytocin Receptor Beta-Lactamase Assay
Conditions: oxytocin stimulation 4 hours, read-out: oxytocin antagonist activity, expressed as a Ki value
Numbers only, as −log10 of the molar value.

Worked cases, answers included:
COc1ccc(-n2c(C)nnc2N2CCC3(CC2)COc2ccccc23)cn1 | 7.89
COCc1nnc(N2CCC3(CC2)OCc2ccccc23)n1-c1ccc(OC)nc1 | 7.99

Now examine the next entry.
The recorded pKi for COCc1nnc(N2CCC3(CC2)OCc2cc(F)ccc23)n1-c1ccc(OC)nc1 is 7.94
